Entries annotated with measured TOF (turnover frequency)
- System: Nitrilase II, SEQ ID NOS:103, 104, obtained from an environmental sample
- experiment: High throughput nitrilase activity assay, turnover frequency on aryl acetaldehyde cyanohydrins
- Format: biochemical, Unknown (obtained from an environmental sample)
- condition.description: conditions as in Table 13 (25 mM substrate, 10% MeOH, 37°C, pH 8), except 0.016 mg/mL nitrilase

# molecule, TOF (turnover frequency)
measured = [
    ("N#CC(O)Cc1ccccn1 (stereo not shown) [2-pyridyl acetaldehyde cyanohydrin]", "6.6 mol product/mol catalyst/sec"),
    ("N#CC(O)Cc1ccsc1 (stereo not shown) [3-thienyl acetaldehyde cyanohydrin]", "1.4 mol product/mol catalyst/sec"),
]

Exercise: Return TOF (turnover frequency) measured with Nitrilase II, SEQ ID NOS:103, 104, obtained from an environmental sample given this molecule: N#CC(O)Cc1cccc(F)c1 (stereo not shown) [3-tluorophenyl acetaldehyde cyanohydrin]
Key: 14 mol product/mol catalyst/sec

Exercise: Return TOF (turnover frequency) measured with Nitrilase II, SEQ ID NOS:103, 104, obtained from an environmental sample given this molecule: N#CC(O)Cc1ccccc1Br (stereo not shown) [2-bromophenyl acetaldehyde cyanohydrin]
Key: 76 mol product/mol catalyst/sec

Exercise: Return TOF (turnover frequency) measured with Nitrilase II, SEQ ID NOS:103, 104, obtained from an environmental sample given this molecule: N#CC(O)Cc1cccs1 (stereo not shown) [2-thienyl acetaldehyde cyanohydrin]
Key: 2.1 mol product/mol catalyst/sec

Exercise: Return TOF (turnover frequency) measured with Nitrilase II, SEQ ID NOS:103, 104, obtained from an environmental sample given this molecule: N#CC(O)Cc1ccccc1F (stereo not shown) [2-fluorophenyl acetaldehyde cyanohydrin]
Key: 97 mol product/mol catalyst/sec

Exercise: Return TOF (turnover frequency) measured with Nitrilase II, SEQ ID NOS:103, 104, obtained from an environmental sample given this molecule: N#CC(O)Cc1ccccc1 (stereo not shown) [phenyl acetaldehyde cyanohydrin]
Key: 16 mol product/mol catalyst/sec

Exercise: Return TOF (turnover frequency) measured with Nitrilase II, SEQ ID NOS:103, 104, obtained from an environmental sample given this molecule: Cc1ccccc1CC(O)C#N (stereo not shown) [2-methylphenyl acetaldehyde cyanohydrin]
Key: 100 mol product/mol catalyst/sec

Exercise: Return TOF (turnover frequency) measured with Nitrilase II, SEQ ID NOS:103, 104, obtained from an environmental sample given this molecule: Cc1cccc(CC(O)C#N)c1 (stereo not shown) [3-methylphenyl acetaldehyde cyanohydrin]
Key: 13 mol product/mol catalyst/sec

Exercise: Return TOF (turnover frequency) measured with Nitrilase II, SEQ ID NOS:103, 104, obtained from an environmental sample given this molecule: N#CC(O)Cc1cccc2ccccc12 (stereo not shown) [1-napthyl acetaldehyde cyanohydrin]
Key: 40 mol product/mol catalyst/sec
